- Run Conditions: in DMF, 283.15 K
Experimental Readout: solubility (mole fraction)

q: Data request, read-out solubility (mole fraction), for N#CNC(=N)N
a: 0.19

* * *

- Run Conditions: in acetone, 278.15 K
Experimental Readout: solubility (mole fraction)
A bare number is all that is needed in reply.

q: Please look up its solubility (mole fraction): N#CNC(=N)N
a: 0.00744

* * *

- Run Conditions: in ethylene glycol, 323.15 K
Experimental Readout: solubility (mole fraction)

q: Report solubility (mole fraction) for N#CNC(=N)N please.
a: 0.12

* * *

- Run Conditions: in DMF, 318.15 K
Experimental Readout: solubility (mole fraction)
Write the number on its own, no unit after it.

q: Would you kindly share the measured solubility (mole fraction) for N#CNC(=N)N ?
a: 0.268
